I'd be grateful if you could share measured IC50 for these entries.
test system: Coxsackie virus B6; experiment: Coxsackie virus activity assay (CPE in Vero cells); assay type: cell-based; conditions: Vero, read-out: COX-B6 IC50, Vero cells, about 100TCID50, CPE, Reed-Muench

Some entries whose results are on file:
So, COc1cc(/C=C/c2ccccc2)cc(OC(=O)c2cccnc2)c1CC=C(C)C [Compound 24l] ? Its IC50 was 0.95 µg/mL

Data point: Oc1cc(O)cc(/C=C/c2ccc(O)c(O)c2)c1 [Compound 21e] ; IC50 = 4.86 µg/mL

Quick note, IC50 for COC(=O)c1c(/C=C/c2ccccc2)cc(OC)c(CC=C(C)C)c1OC(=N)N [Compound 27a] landed at 2.34 µg/mL

Sample COc1cc(/C=C/c2ccccc2)cc(OCC2CNCCN2)c1CC=C(C)C (centres unmarked) [Compound 26f] ; IC50 observed: 0.98 µg/mL

Here is another molecule to look at.
Noted for CC/C=C/c1cc(O)c(CC=C(C)C)c(OC)c1 [Compound 10h] : its IC50 reads > 2.06 µg/mL
